MEASUREMENT DESCRIPTION: Clearance in Wistar Han male rat plasma at 1 mg/kg, iv or 5 mg/kg, po and measured upto 8 hrs post dose by LC-MS/MS analysis
Type: ADME, organism-based
MEASURE: clearance (mL/min/kg)
Please respond with the number in mL/min/kg and leave the unit unwritten.

Item: `Cc1cc(C(=O)O)ccc1CN1CCC[C@H](O[C@H](CO)c2cc(Cl)cc(Cl)c2)[C@@H]1c1ccccc1` | clearance: 2.5

---

MEASUREMENT DESCRIPTION: Solubility of compound at pH 7
Assay type: physicochemical
PARTICULARS: buffer
I would appreciate it if you labelled entries class 1 when solubility is 100 µM or higher, otherwise class 0.

Test whether the molecule `O=C(O)c1ccc(CN2CCC[C@H](O[C@H](CO)c3cc(Cl)cc(Cl)c3)[C@@H]2c2ccccc2)cc1` records solubility of 100 µM or higher. class 0

Given `Cc1cc(C(=O)O)ccc1CN1CCC[C@H](O[C@H](CO)c2cc(Cl)cc(Cl)c2)[C@@H]1c1ccccc1` , state whether its solubility is at least 100 µM. class 1

Hi, just wondering whether `OC[C@@H](O[C@H]1CCCN(Cc2ncc[nH]2)[C@H]1c1ccccc1)c1cc(Cl)cc(Cl)c1` shows solubility of 100 µM or higher. class 1

Could you verify whether the entry `O=C(O)c1ccc(CN2CCC[C@H](O[C@H](CO)c3cc(Cl)cc(Cl)c3)[C@@H]2c2ccccc2)c([N+](=O)[O-])c1` shows solubility of no less than 100 µM? class 1

Tell me whether solubility is at least 100 µM here: `Nc1cc(C(=O)O)ccc1CN1CCC[C@H](O[C@H](CO)c2cc(Cl)cc(Cl)c2)[C@@H]1c1ccccc1` class 0

---

MEASUREMENT DESCRIPTION: Oral bioavailability in Wistar Han male rat plasma at 5 mg/kg and measured upto 8 hrs by LC-MS/MS analysis
Type: ADME, organism-based
MEASURE: bioavailability

compound `Cc1cc(C(=O)O)ccc1CN1CCC[C@H](O[C@H](CO)c2cc(Cl)cc(Cl)c2)[C@@H]1c1ccccc1` , bioavailability observed: 62%

---

MEASUREMENT DESCRIPTION: Protein binding in Wistar Han male rat plasma at 1 mg/kg, iv or 5 mg/kg, po and measured upto 8 hrs post dose by LC-MS/MS analysis
Format: ADME, organism-based
PARTICULARS: read-out: PPB
MEASURE: fraction unbound at 8 h

# molecule `Cc1cc(C(=O)O)ccc1CN1CCC[C@H](O[C@H](CO)c2cc(Cl)cc(Cl)c2)[C@@H]1c1ccccc1` ; its fraction unbound at 8 h = 0.001

---

MEASUREMENT DESCRIPTION: Apparent permeability in dog MDCK-II cells
Format: ADME, cell-based, Canis lupus familiaris
MEASURE: Papp
Phrase the answer as number then unit, nothing more needed.

Recorded Papp (compound `Nc1cc(C(=O)O)ccc1CN1CCC[C@H](O[C@H](CO)c2cc(Cl)cc(Cl)c2)[C@@H]1c1ccccc1` ): 21 ×10⁻⁶ cm/s

Field Papp (entry `O=C(O)c1ccc(CN2CCC[C@H](O[C@H](CO)c3cc(Cl)cc(Cl)c3)[C@@H]2c2ccccc2)c([N+](=O)[O-])c1` ) reads 10 ×10⁻⁶ cm/s

Value of measured Papp for the entry `OC[C@@H](O[C@H]1CCCN(Cc2ncc[nH]2)[C@H]1c1ccccc1)c1cc(Cl)cc(Cl)c1` : 2 ×10⁻⁶ cm/s

# Papp (compound: `Cc1cc(C(=O)O)ccc1CN1CCC[C@H](O[C@H](CO)c2cc(Cl)cc(Cl)c2)[C@@H]1c1ccccc1` ) is 22 ×10⁻⁶ cm/s
